Please respond with reported inhibition at 1 µM for every item in the list.
- assayedSystem: HIV-1 protease (Human immunodeficiency virus type 1 group M subtype B, UniProt P04585)
- testProtocol: biochemical
- conditionContext: read-out: HIV-1 Protease % Inhib, dose 1.000 uM
Quick reminder: number only, in %, skip the unit.

Per the records, this compound ( CCC(c1cccc(NC(=O)CCNC(=O)OC(C)(C)C)c1)c1c(O)c2ccccc2oc1=O (stereo not drawn) ) has inhibition at 1 µM equal to 46.6

CCC(c1cccc(NC(=O)CCc2ccccc2)c1)c1c(O)c2ccc(OC)cc2oc1=O (stereo not drawn) yielded inhibition at 1 µM of 17.6

Reported inhibition at 1 µM for CCC(c1cccc(NC(=O)CCNC(=O)OC(C)(C)C)c1)c1c(O)c2ccc(OC)cc2oc1=O (stereo not drawn) was 36.3

Lab note: CCC(c1cccc(NC(=O)C(C)NC(=O)OC(C)(C)C)c1)c1c(O)c2ccccc2oc1=O (stereo not drawn) gave inhibition at 1 µM of 31.5

Looking up C=CS(=O)(=O)Nc1cccc(C(CC)c2c(O)c3ccccc3oc2=O)c1 (stereo not drawn) , I see its inhibition at 1 µM listed as 11.3

// recorded inhibition at 1 µM for O=c1oc2ccccc2c(O)c1C1CCCCc2ccccc21 (stereo not drawn) : 14.5

CCC(c1cccc(C(=O)NC(C(=O)NCc2ccccn2)C(C)CC)c1)c1c(O)c2ccccc2oc1=O (stereo not drawn) has a reported inhibition at 1 µM of 28.8

Lab note: measured inhibition at 1 µM of CCC(c1ccccc1)c1c(O)c2c(oc1=O)CCCCCC2 (stereo not drawn) was 72.6

Measured values drawn from patent US5686486A for this set.
